test system: murine TTC39A mRNA; assay: Dose-dependent antisense inhibition of murine TTC39A in b.END cells; assay type: cell-based, mouse; settings: 17.5 nM, ~16 h
Oligonucleotides are written 5' to 3', each unit as a sugar letter and its base; * is a phosphorothioate linkage, no mark a phosphodiester; rarer units and linkages stand in square brackets, end groups in braces. Plain capitals give the bases only. e = 2'-O-(2-methoxyethyl) (MOE); [5mC] = 5-methylcytosine; d = 2'-deoxy (DNA)
I would appreciate it if you labelled entries 1 (yes) when percent inhibition of TTC39A mRNA is 20% or higher, otherwise 0 (no).

Query block: Is it the case that TCCATGGAGTAGTTCTTGTA (eT*e[5mC]*e[5mC]*eA*eT*dG*dG*dA*dG*dT*dA*dG*dT*dT*d[5mC]*eT*eT*eG*eT*eA; antisense) [ISIS 474452] has percent inhibition of TTC39A mRNA reaching or exceeding 20%?
Result block: 1 (yes)

Query block: What about TCCTTGCTCAGCAGGTCGGC (eT*e[5mC]*e[5mC]*eT*eT*dG*d[5mC]*dT*d[5mC]*dA*dG*d[5mC]*dA*dG*dG*eT*e[5mC]*eG*eG*e[5mC]; antisense) [ISIS 474366] ?
Result block: 1 (yes)

Query block: Field entry: TGCACTGGTCCAGGGCCTCA (eT*eG*e[5mC]*eA*e[5mC]*dT*dG*dG*dT*d[5mC]*d[5mC]*dA*dG*dG*dG*e[5mC]*e[5mC]*eT*e[5mC]*eA; antisense) [ISIS 474351]
Result block: 0 (no)

Query block: Again, but for CACCTGGGTTTGAGGTAGCT (e[5mC]*eA*e[5mC]*e[5mC]*eT*dG*dG*dG*dT*dT*dT*dG*dA*dG*dG*eT*eA*eG*e[5mC]*eT; antisense) [ISIS 474498]
Result block: 1 (yes)

Query block: Now consider GCCTCAGAATCCTGGTGGGA (eG*e[5mC]*e[5mC]*eT*e[5mC]*dA*dG*dA*dA*dT*d[5mC]*d[5mC]*dT*dG*dG*eT*eG*eG*eG*eA; antisense) [ISIS 474437] and answer again.
Result block: 1 (yes)

###

For each record, write down the corresponding NEFA levels.
test: Plasma NEFA and 3-HB in C57BL/6 mice; assay type: in vivo, mouse; conditions: Week 0 (before treatment), 50 mg/kg/week
Oligonucleotides are written 5' to 3', each unit as a sugar letter and its base; * is a phosphorothioate linkage, no mark a phosphodiester; rarer units and linkages stand in square brackets, end groups in braces. Plain capitals give the bases only. e = 2'-O-(2-methoxyethyl) (MOE); [5mC] = 5-methylcytosine; d = 2'-deoxy (DNA)
Quick note: give the figure in mEq/L, leave out the unit.

Query block: // returns reported NEFA levels for input CGGATGATTCTTGCTGGTAA (antisense e[5mC]*eG*eG*eA*eT*dG*dA*dT*dT*d[5mC]*dT*dT*dG*d[5mC]*dT*eG*eG*eT*eA*eA) [ISIS 447114]
Result block: 0.67

Query block: Now try TATTTCTATAGCTCATGACA (antisense eT*eA*eT*eT*eT*d[5mC]*dT*dA*dT*dA*dG*d[5mC]*dT*d[5mC]*dA*eT*eG*eA*e[5mC]*eA) [ISIS 447144] .
Result block: 0.57

Query block: Moving on to the next sequence: GCAGCTCGATTCGGGCATGA (antisense eG*e[5mC]*eA*eG*e[5mC]*dT*d[5mC]*dG*dA*dT*dT*d[5mC]*dG*dG*dG*e[5mC]*eA*eT*eG*eA) [ISIS 447118]
Result block: 0.67

Query block: Repeat with GCCACCAGTGCCTGCTGAGC (antisense eG*e[5mC]*e[5mC]*eA*e[5mC]*d[5mC]*dA*dG*dT*dG*d[5mC]*d[5mC]*dT*dG*d[5mC]*eT*eG*eA*eG*e[5mC]) [ISIS 447143]
Result block: 0.70

###

Please provide measured % inhibition of murine TTC39B mRNA for the entries that follow.
tested on: murine TTC39B mRNA; test: Antisense inhibition of murine TTC39B in mouse primary hepatocytes, single dose; format: cell-based; details: 100 nM, cytofectin, ~24 h, vs untreated control; gapmers targeted to SEQ ID NO: 6
Oligonucleotides are written 5' to 3', each unit as a sugar letter and its base; * is a phosphorothioate linkage, no mark a phosphodiester; rarer units and linkages stand in square brackets, end groups in braces. Plain capitals give the bases only. e = 2'-O-(2-methoxyethyl) (MOE); [5mC] = 5-methylcytosine; d = 2'-deoxy (DNA)
# value in %; strip the unit string

Query block: Quick one: % inhibition of murine TTC39B mRNA for GCGCCTTCCCGGAGCTGCAG (antisense eG*e[5mC]*eG*e[5mC]*e[5mC]*dT*dT*d[5mC]*d[5mC]*d[5mC]*dG*dG*dA*dG*d[5mC]*eT*eG*e[5mC]*eA*eG) [ISIS 447116] ?
Result block: 56

Query block: Same again, this time with TCCAGAGATGAAGAGCTGCT (antisense eT*e[5mC]*e[5mC]*eA*eG*dA*dG*dA*dT*dG*dA*dA*dG*dA*dG*e[5mC]*eT*eG*e[5mC]*eT) [ISIS 447131]
Result block: 60

Query block: Entry to check: TCATATTTTCATCCTGCACA (antisense eT*e[5mC]*eA*eT*eA*dT*dT*dT*dT*d[5mC]*dA*dT*d[5mC]*d[5mC]*dT*eG*e[5mC]*eA*e[5mC]*eA) [ISIS 447109]
Result block: 41

Query block: Record: GTCCGATGGAGATCTAGAGA (antisense eG*eT*e[5mC]*e[5mC]*eG*dA*dT*dG*dG*dA*dG*dA*dT*d[5mC]*dT*eA*eG*eA*eG*eA) [ISIS 447102]
Result block: 84

###

system: murine TTC39A mRNA; assay: Dose-dependent antisense inhibition of murine TTC39A in b.END cells; assay type: cell-based, mouse; conditions: 8.75 nM, ~16 h
Oligonucleotides are written 5' to 3', each unit as a sugar letter and its base; * is a phosphorothioate linkage, no mark a phosphodiester; rarer units and linkages stand in square brackets, end groups in braces. Plain capitals give the bases only. e = 2'-O-(2-methoxyethyl) (MOE); [5mC] = 5-methylcytosine; d = 2'-deoxy (DNA)
Answer each item with its documented percent inhibition of TTC39A mRNA.
Report the figure in % without appending any unit label.

Query block: Form entry - test system: murine TTC39A mRNA; read-out: percent inhibition of TTC39A mRNA; sequence: TGCACTGGTCCAGGGCCTCA (eT*eG*e[5mC]*eA*e[5mC]*dT*dG*dG*dT*d[5mC]*d[5mC]*dA*dG*dG*dG*e[5mC]*e[5mC]*eT*e[5mC]*eA; antisense) [ISIS 474351]
Result block: 0

Query block: AGTTGGGACCCAGAAGGCCT (eA*eG*eT*eT*eG*dG*dG*dA*d[5mC]*d[5mC]*d[5mC]*dA*dG*dA*dA*eG*eG*e[5mC]*e[5mC]*eT; antisense) [ISIS 474497] ?
Result block: 5

Query block: How about this sequence: CCGCACTTTGATGCCGCCCT (e[5mC]*e[5mC]*eG*e[5mC]*eA*d[5mC]*dT*dT*dT*dG*dA*dT*dG*d[5mC]*d[5mC]*eG*e[5mC]*e[5mC]*e[5mC]*eT; antisense) [ISIS 474435]
Result block: 2

Query block: And TCGGTGCCTCTGACACAGCG (eT*e[5mC]*eG*eG*eT*dG*d[5mC]*d[5mC]*dT*d[5mC]*dT*dG*dA*d[5mC]*dA*e[5mC]*eA*eG*e[5mC]*eG; antisense) [ISIS 474474] ?
Result block: 5

Query block: And the next one, CGCCTGGACTTCCGGATAGC (e[5mC]*eG*e[5mC]*e[5mC]*eT*dG*dG*dA*d[5mC]*dT*dT*d[5mC]*d[5mC]*dG*dG*eA*eT*eA*eG*e[5mC]; antisense) [ISIS 474369] ?
Result block: 14

###

system: murine TTC39B mRNA; assay: Antisense inhibition of murine TTC39B in mouse primary hepatocytes, single dose; type: cell-based; details: 100 nM, cytofectin, ~24 h, vs untreated control; gapmers targeted to SEQ ID NO: 6
Oligonucleotides are written 5' to 3', each unit as a sugar letter and its base; * is a phosphorothioate linkage, no mark a phosphodiester; rarer units and linkages stand in square brackets, end groups in braces. Plain capitals give the bases only. e = 2'-O-(2-methoxyethyl) (MOE); [5mC] = 5-methylcytosine; d = 2'-deoxy (DNA)
Experimental Readout: % inhibition of murine TTC39B mRNA (%)
The answer is to be given in %; state only the numeric part.

Query block: Test system murine TTC39B mRNA; read-out % inhibition of murine TTC39B mRNA; what value for CTTTATTGTACCTGCCAGTC (antisense e[5mC]*eT*eT*eT*eA*dT*dT*dG*dT*dA*d[5mC]*d[5mC]*dT*dG*d[5mC]*e[5mC]*eA*eG*eT*e[5mC]) [ISIS 447134] ?
Result block: 53

Query block: Then what about the sequence AAAATATCTCTGAAGTTTAA (antisense eA*eA*eA*eA*eT*dA*dT*d[5mC]*dT*d[5mC]*dT*dG*dA*dA*dG*eT*eT*eT*eA*eA) [ISIS 447136] ?
Result block: 24

Query block: Item: TCTTCACTCAGTTGTTCCAG (antisense eT*e[5mC]*eT*eT*e[5mC]*dA*d[5mC]*dT*d[5mC]*dA*dG*dT*dT*dG*dT*eT*e[5mC]*e[5mC]*eA*eG) [ISIS 447108]
Result block: 49

Query block: Request: GCTCAGCTTGCAAGGGCCGC (antisense eG*e[5mC]*eT*e[5mC]*eA*dG*d[5mC]*dT*dT*dG*d[5mC]*dA*dA*dG*dG*eG*e[5mC]*e[5mC]*eG*e[5mC]) [ISIS 447127]
Result block: 65

Query block: Could you do the same for GTTGCCTTGGACCATTTACT (antisense eG*eT*eT*eG*e[5mC]*d[5mC]*dT*dT*dG*dG*dA*d[5mC]*d[5mC]*dA*dT*eT*eT*eA*e[5mC]*eT) [ISIS 447122] , please?
Result block: 67

Query block: Another sequence to look at: GGCAGAGTATAAGAATTTCT (antisense eG*eG*e[5mC]*eA*eG*dA*dG*dT*dA*dT*dA*dA*dG*dA*dA*eT*eT*eT*e[5mC]*eT) [ISIS 447133]
Result block: 56

Query block: Now try TAGTAATACGCCTGCATCCA (antisense eT*eA*eG*eT*eA*dA*dT*dA*d[5mC]*dG*d[5mC]*d[5mC]*dT*dG*d[5mC]*eA*eT*e[5mC]*e[5mC]*eA) [ISIS 447121] .
Result block: 53

Query block: Query GAGTACATTCAAATACAGGA (antisense eG*eA*eG*eT*eA*d[5mC]*dA*dT*dT*d[5mC]*dA*dA*dA*dT*dA*e[5mC]*eA*eG*eG*eA) [ISIS 447139] next
Result block: 58

Query block: Input TTTGGCAGGTTTGTAAAGCG (antisense eT*eT*eT*eG*eG*d[5mC]*dA*dG*dG*dT*dT*dT*dG*dT*dA*eA*eA*eG*e[5mC]*eG) [ISIS 447107]
Result block: 61

Query block: Also, CCCCGTTCCAAGCTTGACTC (antisense e[5mC]*e[5mC]*e[5mC]*e[5mC]*eG*dT*dT*d[5mC]*d[5mC]*dA*dA*dG*d[5mC]*dT*dT*eG*eA*e[5mC]*eT*e[5mC]) [ISIS 447112] please.
Result block: 62

Query block: Same for ACAAAGTGAAAGCCGCTGGT (antisense eA*e[5mC]*eA*eA*eA*dG*dT*dG*dA*dA*dA*dG*d[5mC]*d[5mC]*dG*e[5mC]*eT*eG*eG*eT) [ISIS 447103]
Result block: 64

Query block: Please give the result for AGTATGAGGGAGCCATTTGG (antisense eA*eG*eT*eA*eT*dG*dA*dG*dG*dG*dA*dG*d[5mC]*d[5mC]*dA*eT*eT*eT*eG*eG) [ISIS 447117] too.
Result block: 47

Query block: Moving on to the next sequence: GCAGCTTTCAAGAACACATA (antisense eG*e[5mC]*eA*eG*e[5mC]*dT*dT*dT*d[5mC]*dA*dA*dG*dA*dA*d[5mC]*eA*e[5mC]*eA*eT*eA) [ISIS 447123]
Result block: 47

Query block: Try the sequence AGGACCTTGATGGCCTTGTC (antisense eA*eG*eG*eA*e[5mC]*d[5mC]*dT*dT*dG*dA*dT*dG*dG*d[5mC]*d[5mC]*eT*eT*eG*eT*e[5mC]) [ISIS 447130]
Result block: 44

Query block: Quick one: ATGCCATTCTGGATGTCCTG (antisense eA*eT*eG*e[5mC]*e[5mC]*dA*dT*dT*d[5mC]*dT*dG*dG*dA*dT*dG*eT*e[5mC]*e[5mC]*eT*eG) [ISIS 447106]
Result block: 70

Query block: Now the sequence CCGCACACCCACAGGGAACT (antisense e[5mC]*e[5mC]*eG*e[5mC]*eA*d[5mC]*dA*d[5mC]*d[5mC]*d[5mC]*dA*d[5mC]*dA*dG*dG*eG*eA*eA*e[5mC]*eT) [ISIS 447099]
Result block: 56

Query block: Now consider ATCCACATTAATTCCCAGTA (antisense eA*eT*e[5mC]*e[5mC]*eA*d[5mC]*dA*dT*dT*dA*dA*dT*dT*d[5mC]*d[5mC]*e[5mC]*eA*eG*eT*eA) [ISIS 447120] .
Result block: 65

Query block: Record: GAGTCCACCTTTGATGAAGT (antisense eG*eA*eG*eT*e[5mC]*d[5mC]*dA*d[5mC]*d[5mC]*dT*dT*dT*dG*dA*dT*eG*eA*eA*eG*eT) [ISIS 447110]
Result block: 69

Query block: Next up: CGTGTCATTTATTAAATAAC (antisense e[5mC]*eG*eT*eG*eT*d[5mC]*dA*dT*dT*dT*dA*dT*dT*dA*dA*eA*eT*eA*eA*e[5mC]) [ISIS 447154]
Result block: 22

Query block: Try this sequence too: CCTGATAAATCACAAATGCT (antisense e[5mC]*e[5mC]*eT*eG*eA*dT*dA*dA*dA*dT*d[5mC]*dA*d[5mC]*dA*dA*eA*eT*eG*e[5mC]*eT) [ISIS 447150]
Result block: 46
